Molecular target: ATeam3.10 R103A/R115A (Bacillus sp. PS3, UniProt A0A0M5MQR7, R103A/R115A)
Construct: gene uncC; epsilon subunit flanked by mseCFP and mVenus; polyhistidine-tagged
Sequence (A0A0M5MQR7 entry or part of it R103A/R115A): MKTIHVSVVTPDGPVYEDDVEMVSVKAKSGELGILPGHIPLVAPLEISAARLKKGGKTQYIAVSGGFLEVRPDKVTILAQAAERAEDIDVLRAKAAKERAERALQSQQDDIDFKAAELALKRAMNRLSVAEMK
Assay: Steady-state FRET ratio ADP dose response of 0.125 uM purified ATeam3.10 sensor at room temperature in 50 mM MOPS-KOH pH 7.3, 50 mM KCl, 0.5 mM MgCl2, 0.05% Triton-X100 (4 to 9 replicates).
Type: binding
Conditions: n = 4
QUANTITY KIND: Kd (µM)
One number for each entry, in µM.

Entry Nc1ncnc2c1ncn2[C@@H]1O[C@H](COP(=O)(O)OP(=O)(O)O)[C@@H](O)[C@H]1O [ADP, Adenosine diphosphate] : Kd on ATeam3.10 R103A/R115A (Bacillus sp. PS3, UniProt A0A0M5MQR7, R103A/R115A) = 32
